- Tested on: Staphylococcus aureus ATCC 25923
Answer each item with its documented MIC.

Please look up its MIC: `CC[C@H](C)[C@H](NC(=O)[C@H](CCCCN)NC(=O)[C@@H](NC(=O)[C@@H](N)Cc1c[nH]c2ccccc12)[C@@H](C)CC)C(=O)N[C@@H](Cc1c[nH]c2ccccc12)C(=O)N[C@@H](CCCCN)C(=O)N[C@@H](CCCCN)C(=O)N[C@H](C(=O)N[C@H](C(=O)N[C@@H](CCCCN)C(=O)N[C@@H](CCCCN)C(=O)N[C@@H](Cc1c[nH]c2ccccc12)C(=O)N[C@@H](CCCCN)C(=O)N[C@@H](CCCCN)C(=O)O)[C@@H](C)CC)[C@@H](C)CC`
8 µM

Also `CC[C@H](C)[C@@H]1NC(=O)[C@@H]2CCCN2C(=O)[C@H](CC(C)C)NC(=O)[C@@H]2CCCN2C(=O)[C@H]([C@@H](C)CC)NC(=O)[C@H](Cc2c[nH]c3ccccc23)NC(=O)[C@H](CO)NC(=O)[C@@H](NC(=O)[C@@H](NC(=O)[C@@H](N)CCCN=C(N)N)C(C)C)CSSC[C@@H](C(=O)N[C@@H](Cc2cnc[nH]2)C(N)=O)NC1=O` ?
250 µM

Proceed to `CC[C@H](C)[C@H](NC(=O)[C@H](Cc1ccc(O)cc1)NC(=O)[C@H](CCCCN)NC(=O)[C@H](CCCCN)NC(=O)[C@H](CC(C)C)NC(=O)[C@H](CC(C)C)NC(=O)[C@H](CCCCN)NC(=O)[C@H](CCCCN)NC(=O)[C@@H](NC(=O)[C@H](CC(C)C)NC(=O)[C@@H](N)CCCCN)C(C)C)C(=O)N[C@H](C(=O)N[C@@H](Cc1ccccc1)C(=O)O)[C@@H](C)O`
> 64 µM

Repeat with `NC(=O)[C@H](CCCN=C(N)N)NC(=O)[C@H](CCCN=C(N)N)NC(=O)[C@H](Cc1c[nH]c2ccccc12)NC(=O)[C@@H]1CCCN1C(=O)[C@H](Cc1c[nH]c2ccccc12)NC(=O)[C@H](CCCN=C(N)N)NC(=O)[C@@H]1CCCN1C(=O)[C@H](Cc1c[nH]c2ccccc12)NC(=O)[C@H](CCCN=C(N)N)NC(=O)[C@H](Cc1c[nH]c2ccccc12)NC(=O)[C@@H]1CCCN1C(=O)[C@H](CCCN=C(N)N)NC(=O)[C@@H](N)CCCN=C(N)N`
15.7 µM

Cool, now `CC(C)C[C@H](NC(=O)[C@H](CCC(=O)O)NC(=O)[C@@H](N)CCCCN)C(=O)N[C@@H](CCC(=O)O)C(=O)N[C@@H](CCC(=O)O)C(=O)N[C@@H](CCCCN)C(=O)O`
403 µM

* * *

Below are compounds with their MIC as measured on Staphylococcus aureus ATCC 25923.

Looking for the measured MIC of `CC(C)C[C@H](NC(=O)[C@H](Cc1c[nH]c2ccccc12)NC(=O)[C@H](Cc1cnc[nH]1)NC(=O)[C@H](CCCCN)NC(=O)[C@H](CC(C)C)NC(=O)[C@H](C)NC(=O)[C@H](CC(C)C)NC(=O)[C@H](CCCCN)NC(=O)CNC(=O)[C@@H](NC(=O)[C@@H](NC(=O)[C@@H](N)CCCCN)[C@@H](C)O)C(C)C)C(=O)O` , can you help?
> 15 µM

Proceed to `CC[C@H](C)[C@H](NC(=O)CNC(=O)[C@H](CO)NC(=O)[C@H](C)NC(=O)[C@@H](N)Cc1ccccc1)C(=O)N[C@@H](C)C(=O)NCC(=O)N[C@@H](CCSC)C(=O)N[C@@H](C)C(=O)NCC(=O)N[C@@H](CCCCN)C(=O)N[C@@H](CC(C)C)C(=O)N[C@@H](Cc1ccccc1)C(N)=O`
> 200 µM

Please do the same for `CC[C@H](C)[C@H](NC(=O)[C@H](CC(C)C)NC(=O)[C@@H](NC(=O)[C@@H](N)CC(=O)O)[C@@H](C)CC)C(=O)N[C@H](C(=O)N[C@H](C(=O)NCC(=O)NCC(N)=O)C(C)C)[C@@H](C)CC` as well.
> 64 µM
